TESTED_TARGET: T1, Abp1, P15891
T1 sequence (P15891 535-592, looked up): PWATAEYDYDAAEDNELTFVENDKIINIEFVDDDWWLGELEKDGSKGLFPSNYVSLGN
ASSAY_METHOD_TEXT: SPOT array
PROTOCOL_CONDITIONS: median of control spots 935
QUANTITY_KIND: SPOT intensity

Please review the following examples before continuing.
{"columns": ["BINDER", "SPOT intensity"],
 "data": [
  ["STPQTMRQAPKRPDA", 102],
  ["RPVPPPPPMRTTTEG", 0],
  ["QRIRKIPGIPLMSVG", 110]
]}

Field: next binder
Notebook: `VRTRRRPPPPPIPST` , SPOT intensity read as 107
